FYI, the data here is from ChEMBL document CHEMBL4028802.

Organism: Homo sapiens
test.summary: Liver toxicity in human assessed as induction of drug-induced liver injury by measuring verified drug-induced liver injury concern status
observation.type: DILI_Concern

>  <molecule>
CO/N=C(\C(=O)N[C@@H]1C(=O)N2C(C(=O)O)=C(COC(N)=O)CS[C@H]12)c1ccco1 [CEFUROXIME]

>  <observation.type>
DILI_Concern

>  <recorded.result>
Less-Dili-Concern

$$$$
>  <molecule>
COC(=O)C1=C(C)NC(C)=C(C(=O)OC(C)C)C1c1cccc2nonc12 (centres undefined) [ISRADIPINE]

>  <observation.type>
DILI_Concern

>  <recorded.result>
Less-Dili-Concern

$$$$

* * *

Species on record: Homo sapiens
test.summary: Liver toxicity in human assessed as induction of drug-induced liver injury by measuring verified drug-induced liver injury concern status

>  <molecule>
CC(C(=O)O)c1cccc(C(=O)c2ccccc2)c1 (stereo not given) [KETOPROFEN]

>  <DILI_Concern>
Less-Dili-Concern

$$$$
>  <molecule>
COc1c(N2C[C@@H]3CCCN[C@@H]3C2)c(F)cc2c(=O)c(C(=O)O)cn(C3CC3)c12 [MOXIFLOXACIN]

>  <DILI_Concern>
Less-Dili-Concern

$$$$
>  <molecule>
CN[C@@H]1CCc2[nH]c3ccc(C(N)=O)cc3c2C1 [FROVATRIPTAN]

>  <DILI_Concern>
No-Dili-Concern

$$$$
>  <molecule>
OC(CCN1CCCCC1)(c1ccccc1)C1CC2C=CC1C2 (stereo not given) [BIPERIDEN]

>  <DILI_Concern>
No-Dili-Concern

$$$$
